- assay target: BRG-1 (Homo sapiens, UniProt P51532)
- Sequence (P51532 whole entry): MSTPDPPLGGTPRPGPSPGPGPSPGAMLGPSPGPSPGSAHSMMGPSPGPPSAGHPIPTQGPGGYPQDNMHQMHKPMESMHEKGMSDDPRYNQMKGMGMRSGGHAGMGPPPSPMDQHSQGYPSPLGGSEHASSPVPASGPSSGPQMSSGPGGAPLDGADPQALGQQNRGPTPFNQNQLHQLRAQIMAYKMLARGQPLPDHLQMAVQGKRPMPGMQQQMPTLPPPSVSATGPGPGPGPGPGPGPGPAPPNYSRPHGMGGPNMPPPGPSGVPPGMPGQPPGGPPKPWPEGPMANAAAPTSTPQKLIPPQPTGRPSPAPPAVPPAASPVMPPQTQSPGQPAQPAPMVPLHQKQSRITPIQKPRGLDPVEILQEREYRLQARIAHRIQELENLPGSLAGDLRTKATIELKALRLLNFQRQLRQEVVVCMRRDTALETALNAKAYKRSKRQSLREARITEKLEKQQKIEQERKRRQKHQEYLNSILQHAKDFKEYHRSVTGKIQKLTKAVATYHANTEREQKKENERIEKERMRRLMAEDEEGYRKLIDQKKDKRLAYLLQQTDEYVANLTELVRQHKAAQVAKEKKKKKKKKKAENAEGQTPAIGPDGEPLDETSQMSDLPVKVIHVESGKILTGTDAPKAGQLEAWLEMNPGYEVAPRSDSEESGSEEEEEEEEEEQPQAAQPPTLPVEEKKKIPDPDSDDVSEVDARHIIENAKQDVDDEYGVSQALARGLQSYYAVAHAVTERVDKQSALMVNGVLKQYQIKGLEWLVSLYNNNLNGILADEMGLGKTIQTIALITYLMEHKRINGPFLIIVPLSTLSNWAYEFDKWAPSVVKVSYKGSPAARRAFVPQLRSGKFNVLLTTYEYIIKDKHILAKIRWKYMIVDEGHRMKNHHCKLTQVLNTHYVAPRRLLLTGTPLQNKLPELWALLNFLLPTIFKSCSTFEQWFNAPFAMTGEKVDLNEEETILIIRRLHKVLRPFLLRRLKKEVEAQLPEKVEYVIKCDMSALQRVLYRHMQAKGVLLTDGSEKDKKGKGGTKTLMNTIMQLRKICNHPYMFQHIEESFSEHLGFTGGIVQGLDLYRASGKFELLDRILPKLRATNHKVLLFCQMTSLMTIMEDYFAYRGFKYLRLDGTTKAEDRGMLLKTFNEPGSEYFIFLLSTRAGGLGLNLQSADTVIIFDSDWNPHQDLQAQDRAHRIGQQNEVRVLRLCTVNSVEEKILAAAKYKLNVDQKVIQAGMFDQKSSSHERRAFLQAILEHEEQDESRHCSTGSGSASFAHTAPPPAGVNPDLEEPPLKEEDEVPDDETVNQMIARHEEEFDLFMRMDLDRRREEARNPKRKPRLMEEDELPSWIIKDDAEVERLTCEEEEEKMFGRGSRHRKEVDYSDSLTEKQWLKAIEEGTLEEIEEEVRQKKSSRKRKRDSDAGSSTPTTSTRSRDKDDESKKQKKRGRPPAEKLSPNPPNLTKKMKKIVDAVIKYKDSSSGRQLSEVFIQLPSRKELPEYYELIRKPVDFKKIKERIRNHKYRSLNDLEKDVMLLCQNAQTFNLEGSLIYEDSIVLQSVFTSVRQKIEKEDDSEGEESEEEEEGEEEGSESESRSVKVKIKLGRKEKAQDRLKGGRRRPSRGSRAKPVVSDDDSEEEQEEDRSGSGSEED
- protocol: ATPase catalytic activity assay (ADP-Glo), BRG-1
- recorded conditions: 1 h, read-out: BRG1 Max % Inhibition, ADP-Glo, 30 nM BRG-1, 400 μM ATP
Entries annotated with measured Emax
In your response, put the unit directly after the numeric value.

Query: What measured Emax goes with `Cc1nn(C)cc1-c1ccc2cnc(CNC(=O)c3ccc4c(c3)[C@](C)(C#N)COC4)cc2n1` ?
Response: 54%

Query: What measured Emax goes with `CN(C)c1cccc([C@H]2C[C@H](c3ccnc(CNC(=O)c4ccc5c(c4)[C@](C)(C#N)COC5)c3)C2)n1` ?
Response: 91%

Query: What measured Emax goes with `C[C@@]1(F)COCc2ccc(C(=O)NCc3cc4nc(-c5cccc(N6CCC6)n5)cnc4cn3)cc21` ?
Response: 93%

Query: What measured Emax goes with `COC(=O)c1cccc(-c2ccc3cnc(CNC(=O)c4ccc5c(c4)[C@](C)(C#N)COC5)cc3n2)c1` ?
Response: 93%

The measured values listed here are drawn from patent US12441726B2.
